target: T1, Rluc-ADGRG2-ΔGPS-β V731A (mouse, UniProt Q8CJ12-3 38-995, V731A); assay: FRET or BRET; HEK293 cells transfected with Rluc-ADGRG2-ΔGPS-β WT or mutants, stimulated by increasing concentrations of FITC-conjugated VPM-p15; saturation curves fitted with GraphPad; each experiment repeated 6 times; conditions: one partner purified
T1 construct: ADGRG2 (GPR64), mouse, ADGRG2-ΔGPS-β: the entire ECD removed; source: HEK293, transfected, on cells; not shown: Rluc, N-terminal, kept
T1 sequence (Q8CJ12 other isoform, or with tags, fused parts or gaps V731A | V731A | V731A V731A): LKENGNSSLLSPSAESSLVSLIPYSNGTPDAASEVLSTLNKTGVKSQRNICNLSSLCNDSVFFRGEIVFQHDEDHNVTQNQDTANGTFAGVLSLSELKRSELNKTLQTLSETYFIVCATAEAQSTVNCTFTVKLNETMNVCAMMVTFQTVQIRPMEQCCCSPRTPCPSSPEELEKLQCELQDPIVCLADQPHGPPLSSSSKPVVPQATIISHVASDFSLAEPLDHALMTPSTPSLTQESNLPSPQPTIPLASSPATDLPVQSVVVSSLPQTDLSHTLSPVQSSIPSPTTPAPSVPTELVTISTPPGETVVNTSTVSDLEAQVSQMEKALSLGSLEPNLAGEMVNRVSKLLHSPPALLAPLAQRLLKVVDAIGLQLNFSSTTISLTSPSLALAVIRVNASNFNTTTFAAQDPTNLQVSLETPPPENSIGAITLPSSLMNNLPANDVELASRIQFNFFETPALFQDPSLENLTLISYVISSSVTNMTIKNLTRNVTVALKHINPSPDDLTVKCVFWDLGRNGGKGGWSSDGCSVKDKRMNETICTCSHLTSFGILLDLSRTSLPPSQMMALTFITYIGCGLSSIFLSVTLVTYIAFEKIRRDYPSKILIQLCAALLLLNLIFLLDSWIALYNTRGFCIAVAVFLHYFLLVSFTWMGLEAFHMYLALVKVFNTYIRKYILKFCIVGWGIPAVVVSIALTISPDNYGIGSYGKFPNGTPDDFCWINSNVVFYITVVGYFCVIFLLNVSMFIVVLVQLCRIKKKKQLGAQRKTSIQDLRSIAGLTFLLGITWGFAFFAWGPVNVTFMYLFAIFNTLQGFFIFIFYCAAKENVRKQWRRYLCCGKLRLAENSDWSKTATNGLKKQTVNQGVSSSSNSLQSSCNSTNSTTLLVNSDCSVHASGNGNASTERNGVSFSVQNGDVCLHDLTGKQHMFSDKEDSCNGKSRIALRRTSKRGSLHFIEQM
Non-standard residues stand in square brackets, D forms with d. Primed or numbered codes have the meaning given here. No end group written: not given here. Phe(4-Me) = Cc1ccc(C[C@H](N)C(=O)O)cc1; FITC′ = not defined here
Measured endpoint: EC50 (nM)
Use nM as the unit, but write only the number.

Looking up VS[Phe(4-Me)]GILLDLSRTSLP-{FITC′} [FITC-conjugated VPM-p15 (ADGRG2 Stachel peptide p15 T1V/F3Phe(4-Me))] , I see its EC50 listed as 838
